Target: mGluR5 (Homo sapiens, UniProt P41594)
Sequence (P41594 21-1212): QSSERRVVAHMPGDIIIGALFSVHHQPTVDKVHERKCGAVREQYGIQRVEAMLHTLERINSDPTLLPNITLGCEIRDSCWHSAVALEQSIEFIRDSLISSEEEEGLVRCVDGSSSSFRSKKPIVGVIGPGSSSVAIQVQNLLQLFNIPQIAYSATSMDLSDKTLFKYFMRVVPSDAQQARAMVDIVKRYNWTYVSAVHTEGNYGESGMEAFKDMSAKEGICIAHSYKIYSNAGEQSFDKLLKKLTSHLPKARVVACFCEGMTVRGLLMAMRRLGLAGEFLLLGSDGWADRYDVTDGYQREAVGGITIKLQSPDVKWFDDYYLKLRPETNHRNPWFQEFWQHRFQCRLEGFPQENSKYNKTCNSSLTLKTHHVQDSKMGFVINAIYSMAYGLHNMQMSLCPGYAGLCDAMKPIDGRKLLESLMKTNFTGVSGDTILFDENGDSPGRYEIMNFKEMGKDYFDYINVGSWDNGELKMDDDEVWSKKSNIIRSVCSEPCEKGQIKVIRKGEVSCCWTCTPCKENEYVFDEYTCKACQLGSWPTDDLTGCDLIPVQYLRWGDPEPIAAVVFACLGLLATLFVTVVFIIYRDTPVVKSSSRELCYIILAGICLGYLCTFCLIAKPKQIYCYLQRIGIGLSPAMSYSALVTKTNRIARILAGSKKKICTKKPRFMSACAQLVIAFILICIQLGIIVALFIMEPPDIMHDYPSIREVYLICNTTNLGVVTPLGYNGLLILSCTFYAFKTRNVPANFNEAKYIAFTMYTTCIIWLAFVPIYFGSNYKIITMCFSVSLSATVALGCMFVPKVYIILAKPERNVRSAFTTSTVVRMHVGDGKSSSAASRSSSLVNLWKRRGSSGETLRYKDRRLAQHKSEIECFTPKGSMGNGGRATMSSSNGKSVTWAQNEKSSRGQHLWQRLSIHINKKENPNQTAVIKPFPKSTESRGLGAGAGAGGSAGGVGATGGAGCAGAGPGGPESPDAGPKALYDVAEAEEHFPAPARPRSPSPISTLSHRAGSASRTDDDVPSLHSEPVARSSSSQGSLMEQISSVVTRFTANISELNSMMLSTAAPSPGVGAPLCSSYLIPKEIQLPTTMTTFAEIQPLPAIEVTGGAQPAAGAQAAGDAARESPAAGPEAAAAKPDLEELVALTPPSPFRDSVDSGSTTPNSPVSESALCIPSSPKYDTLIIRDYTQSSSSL
Test: Fluorescence-based Ca2+ mobilization assay
Settings: HEK293 cell line overexpressing mGluR5; L-glutamate at EC80; Ca2+ level, FLIPR
pIC50: −log10 of the molar value.
quantity_measured: pIC50

Look up pIC50: `O=C(NCC1(O)CCCCC1)c1ccc(C#Cc2ccc(F)cc2)cc1`
> 7.00

Would you mind telling me what pIC50 value was observed for `O=C(NC[C@@H]1CCOC1)c1ccc(C#Cc2ccc(F)cc2F)cc1` ?
6.30 to 7.00

Query (compound): `CC1(CNC(=O)c2ccc(C#Cc3ccc(F)cc3F)cc2)CCOCC1` ; field requested: pIC50
> 7.00

Any idea what its pIC50 is? The compound is CC1(O)CC(CNC(=O)c2ccc(C#Cc3ccccc3F)cc2)C1 (centres unmarked)
> 7.00

Quick check: pIC50 of `O=C(NCC1CCC1)c1ccc(C#Cc2ccc(F)cc2F)cc1` ?
6.30 to 7.00

###

Biological target: human 5-HT2A receptor (Homo sapiens, UniProt P28223)
Sequence (P28223 whole entry): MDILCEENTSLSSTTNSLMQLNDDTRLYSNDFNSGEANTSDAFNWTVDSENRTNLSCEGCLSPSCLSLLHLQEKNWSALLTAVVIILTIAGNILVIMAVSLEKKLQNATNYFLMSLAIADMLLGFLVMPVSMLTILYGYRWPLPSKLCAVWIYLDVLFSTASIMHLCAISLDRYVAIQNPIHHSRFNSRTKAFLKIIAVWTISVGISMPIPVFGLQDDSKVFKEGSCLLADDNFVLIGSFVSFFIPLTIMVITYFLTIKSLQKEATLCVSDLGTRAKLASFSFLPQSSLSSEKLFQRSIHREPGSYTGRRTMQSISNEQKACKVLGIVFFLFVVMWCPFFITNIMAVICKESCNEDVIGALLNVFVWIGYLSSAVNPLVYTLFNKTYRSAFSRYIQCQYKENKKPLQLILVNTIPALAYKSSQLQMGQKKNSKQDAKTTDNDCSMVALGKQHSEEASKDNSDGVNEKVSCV
Experiment: HTRF-based IP1 accumulation assay
Conditions: HEK293 cell line overexpressing human 5-HT2A receptor; serotonin at EC80; IP1 production; read-out: Human 5-HT2AR (IC50)
Provide the recorded IC50 for the entries that follow.

// lookup IC50 | system=human 5-HT2A receptor (Homo sapiens, UniProt P28223) | key= `O=C(NCCC1CCOCC1)c1ccc(C#Cc2ccc(F)cc2F)cc1`
< 0.1 µM

Give human 5-HT2A receptor (Homo sapiens, UniProt P28223) IC50 for `CC1(CNC(=O)c2ccc(C#Cc3ccc(F)cc3F)cc2)CCOCC1`
0.1 to 0.5 µM

Quick check: IC50 on human 5-HT2A receptor (Homo sapiens, UniProt P28223), item `O=C(NCC1(O)CCC1)c1ccc(C#Cc2ccc(F)cc2)cc1` ?
< 0.1 µM

Fill in the recorded IC50 for this compound, with human 5-HT2A receptor (Homo sapiens, UniProt P28223) as test system: [2H]C(NC(=O)c1ccc(C#Cc2ccccc2F)cc1)C1(C)COC1 (stereo not drawn)
0.1 to 0.5 µM

So what IC50 did `O=C(NCC1(O)CCCCC1)c1ccc(C#Cc2ccc(F)cc2F)cc1` get with human 5-HT2A receptor (Homo sapiens, UniProt P28223)?
0.1 to 0.5 µM

Give recorded IC50 with human 5-HT2A receptor (Homo sapiens, UniProt P28223) for the following compound: `O=C(NCC1(O)CCC1)c1ccc(C#Cc2ccc(F)cc2F)cc1`
< 0.1 µM

// lookup IC50 | system=human 5-HT2A receptor (Homo sapiens, UniProt P28223) | key= CC1(O)CC(CNC(=O)c2ccc(C#Cc3ccccc3F)cc2)C1 (stereo not drawn)
0.1 to 0.5 µM

# get_value(readout= IC50, system= human 5-HT2A receptor (Homo sapiens, UniProt P28223)) for `O=C(NCC1(O)CCCCC1)c1ccc(C#Cc2ccc(F)cc2)cc1`
0.1 to 0.5 µM

# value lookup — system human 5-HT2A receptor (Homo sapiens, UniProt P28223), readout IC50, item `O=C(NCC1CCC1)c1ccc(C#Cc2ccc(F)cc2F)cc1`
0.1 to 0.5 µM

###

For each of the compounds below, state its IC50.
Target: mGluR5 (Homo sapiens, UniProt P41594)
Assay: Fluorescence-based Ca2+ mobilization assay
Conditions: HEK293 cell line overexpressing mGluR5; L-glutamate at EC80; Ca2+ level, FLIPR

mGluR5 (Homo sapiens, UniProt P41594) / IC50 / `O=C(NCC1(O)CCCCC1)c1ccc(C#Cc2ccc(F)cc2F)cc1` : value?
500 to 1000 nM

Recorded IC50 for `O=C(NCC1(O)CCC1)c1ccc(C#Cc2ccc(F)cc2)cc1` with mGluR5 (Homo sapiens, UniProt P41594), please?
< 100 nM

Give IC50 (mGluR5 (Homo sapiens, UniProt P41594)) of the following compound: `O=C(NCC1(O)CCC1)c1ccc(C#Cc2ccc(F)cc2F)cc1`
100 to 500 nM

# returns recorded IC50 (system: mGluR5 (Homo sapiens, UniProt P41594)) for `O=C(NC[C@H]1CCOC1)c1ccc(C#Cc2ccc(F)cc2F)cc1`
100 to 500 nM

Form: Entry = `O=C(NCCC1CCOCC1)c1ccc(C#Cc2ccc(F)cc2F)cc1` | System = mGluR5 (Homo sapiens, UniProt P41594) | IC50 = ____
100 to 500 nM
